Recorded values, source patent US20110269790A1.

# MEASUREMENT TARGET: porcine pancreatic α-amylase (Sus scrofa, UniProt P00690)
# Construct: α-amylase [EC 3.2.1.1) Type VI B: from porcine pancreas]; purchased Sigma Chemical Co., St Louis, Mo., USA; host or cells: porcine pancreas (natural source)
# Sequence (P00690 16-511): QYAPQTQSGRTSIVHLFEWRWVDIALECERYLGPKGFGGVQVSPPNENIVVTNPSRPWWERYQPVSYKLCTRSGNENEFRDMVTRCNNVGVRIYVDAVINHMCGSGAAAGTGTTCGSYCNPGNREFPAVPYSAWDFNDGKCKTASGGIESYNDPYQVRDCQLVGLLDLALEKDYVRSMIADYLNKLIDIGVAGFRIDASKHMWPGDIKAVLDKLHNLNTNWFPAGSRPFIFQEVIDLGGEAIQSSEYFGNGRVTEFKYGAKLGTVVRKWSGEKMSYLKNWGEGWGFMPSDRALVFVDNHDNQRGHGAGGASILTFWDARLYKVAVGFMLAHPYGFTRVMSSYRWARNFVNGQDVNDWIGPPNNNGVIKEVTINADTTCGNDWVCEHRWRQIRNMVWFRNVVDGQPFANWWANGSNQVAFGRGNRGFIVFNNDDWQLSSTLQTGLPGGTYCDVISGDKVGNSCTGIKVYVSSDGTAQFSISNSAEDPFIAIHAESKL
# EXPERIMENTAL PROTOCOL: α-Amylase inhibition assay
# Format: biochemical
# CONDITIONS USED: 10 mg per ml
ASSAY ENDPOINT: Alpha amylase inhibitory activity (in words)

{"SUBSTANCE SMILES": "Nc1c2c(nc3sc4c(c13)CCC4)CCCCC2", "MEASURED": "mild inhibition"}
{"SUBSTANCE SMILES": "Nc1c2c(nc3sc4c(c13)CCCC4)CCCC2", "MEASURED": "mild inhibition"}

---

// reported IC50 per item
# MEASUREMENT TARGET: crude intestinal α-glucosidase
# EXPERIMENTAL PROTOCOL: In-vitro mammalian (rat intestinal) α-glucosidase inhibition assay
# Type: biochemical
# CONDITIONS USED: mammalian α-glucosidase, dose response study

{"MOLECULE": "CC1CCc2c(nc3sc4c(c3c2N)CCC4)C1 (stereo not shown)", "IC50 / µg/mL": 299}
{"MOLECULE": "Nc1c2c(nc3sc4c(c13)CCC4)CCCCCC2", "IC50 / µg/mL": 528}
{"MOLECULE": "Nc1c2c(nc3sc4c(c13)CCC4)CCC2", "IC50 / µg/mL": 509}
{"MOLECULE": "Nc1c2c(nc3sc4c(c13)CCC4)CCCC2", "IC50 / µg/mL": 1560}

---

# MEASUREMENT TARGET: porcine pancreatic α-amylase (Sus scrofa)
# Construct: α-amylase [EC 3.2.1.1) Type VI B: from porcine pancreas]; purchased Sigma Chemical Co., St Louis, Mo., USA; host or cells: porcine pancreas (natural source)
# EXPERIMENTAL PROTOCOL: α-Amylase inhibition assay
# Assay type: biochemical
# CONDITIONS USED: 0.05 h; 10 mg per ml; calculated from maltose released vs respective control

{"COMPOUND": "Cc1sc2nc3c(c(N)c2c1C)CCC3", "inhibition at 10000 µg/mL (stock) [%]": -3.12}
{"COMPOUND": "Nc1c2c(nc3sc4c(c13)CCCC4)CCC2", "inhibition at 10000 µg/mL (stock) [%]": 4.85}
{"COMPOUND": "Cc1sc2nc3c(c(N)c2c1C)CCCC3", "inhibition at 10000 µg/mL (stock) [%]": 39.7}
{"COMPOUND": "CC1CCc2c(nc3sc4c(c3c2N)CCC4)C1 (stereo not shown)", "inhibition at 10000 µg/mL (stock) [%]": 46.7}

---

// reported Mammalian α-glucosidase inhibition (Mean ± S.E) per item
# Tested on: crude intestinal α-glucosidase
# EXPERIMENTAL PROTOCOL: In-vitro mammalian (rat intestinal) α-glucosidase inhibition assay
# Format: biochemical
# CONDITIONS USED: 0.3125 mg/ml
# Source text: Chemicals: α-Glucosidase [(EC 3.2.1.20) Type I: from bakers yeast], rat intestinal acetone powder (as a source of crude intestinal α-glucosidase), α-amylase [EC 3.2.1.1) Type VI B: from porcine pancreas], p-nitrophenyl α-D-glucopyranoside, 3,5-dinitro salicylic acid, soluble potato starch and 1-deoxyrojirimycine, were purchased from Sigma Chemical Co., St Louis, Mo., USA. Other chemicals of analytical grade were procured from indigenous manufacturers. […]
ASSAY ENDPOINT: Mammalian α-glucosidase inhibition (Mean ± S.E) (%)

{"COMPOUND": "Nc1c2c(nc3sc4c(c13)CCC4)CCCCCC2", "UNITS LABEL": "%", "MEASURED": 44.41}
{"COMPOUND": "Nc1c2c(nc3sc4c(c13)CCC4)CCCC2", "UNITS LABEL": "%", "MEASURED": 34.49}
{"COMPOUND": "Nc1c2c(nc3sc4c(c13)CCC4)CCC2", "UNITS LABEL": "%", "MEASURED": 44.87}
{"COMPOUND": "CC1CCc2c(nc3sc4c(c3c2N)CCC4)C1 (stereo not shown)", "UNITS LABEL": "%", "MEASURED": 52.37}

---

# Test system: IL-1β
# EXPERIMENTAL PROTOCOL: IL-1β in rat paw tissue and serum, FCA model (ELISA)
# Type: in vivo
# Design: concentration or dose not given beside the values
# CONDITIONS USED: rat serum, termination day, FCA induced arthritis
// reported Percentage of Inhibition (IL-1 Beta) per item

{"MOLECULE": "Cc1sc2nc3c(c(N)c2c1C)CCCCC3 [BN-4]", "Percentage of Inhibition (IL-1 Beta) / %": 29.28}
{"MOLECULE": "COc1ccc2c(c1)c(CC(=O)O)c(C)n2C(=O)c1ccc(Cl)cc1 [Indomethacin, reference compound]", "Percentage of Inhibition (IL-1 Beta) / %": 20.04}
{"MOLECULE": "Nc1c2c(nc3sc4c(c13)CCC4)CCCCC2 [BN-16]", "Percentage of Inhibition (IL-1 Beta) / %": 32.48}
{"MOLECULE": "Nc1c2c(nc3sc4c(c13)CCC4)CCCC2 [BN-14]", "Percentage of Inhibition (IL-1 Beta) / %": 22.17}

---

// reported Mammalian α-glucosidase inhibition (Mean ± S.E) per item
# System: crude intestinal α-glucosidase
# EXPERIMENTAL PROTOCOL: In-vitro mammalian (rat intestinal) α-glucosidase inhibition assay
# Type: biochemical
# CONDITIONS USED: 0.625 mg/ml
ASSAY ENDPOINT: Mammalian α-glucosidase inhibition (Mean ± S.E) (%)

{"MOLECULE": "Nc1c2c(nc3sc4c(c13)CCC4)CCCC2", "MEASURED": 40.62}
{"MOLECULE": "Nc1c2c(nc3sc4c(c13)CCC4)CCC2", "MEASURED": 52.97}
{"MOLECULE": "CC1CCc2c(nc3sc4c(c3c2N)CCC4)C1 (stereo not shown)", "MEASURED": 61.83}
{"MOLECULE": "Nc1c2c(nc3sc4c(c13)CCC4)CCCCCC2", "MEASURED": 52.44}

---

# Tested on: crude intestinal α-glucosidase
# EXPERIMENTAL PROTOCOL: In-vitro mammalian (rat intestinal) α-glucosidase inhibition assay
# Assay type: biochemical
# CONDITIONS USED: 5 mg/ml
ASSAY ENDPOINT: Mammalian α-glucosidase inhibition (Mean ± S.E) (%)

{"COMPOUND": "Nc1c2c(nc3sc4c(c13)CCC4)CCCC2", "MEASURED": 58.37}
{"COMPOUND": "Nc1c2c(nc3sc4c(c13)CCC4)CCC2", "MEASURED": 76.13}
{"COMPOUND": "Nc1c2c(nc3sc4c(c13)CCC4)CCCCCC2", "MEASURED": 75.39}
{"COMPOUND": "CC1CCc2c(nc3sc4c(c3c2N)CCC4)C1 (stereo not shown)", "MEASURED": 88.87}

---

# System: mice
# EXPERIMENTAL PROTOCOL: Adenosine mediated bronchoconstriction and lung inflammation in an allergic mouse model
# Format: in vivo
# CONDITIONS USED: BAL fluid cells; 100 mg/kg oral
// reported Differential count (%) Monocytes per item
ASSAY ENDPOINT: Differential count (%) Monocytes

{"COMPOUND": "Nc1c2c(nc3sc4c(c13)CCCCC4)CCC2", "MEASURED": 15}
{"COMPOUND": "Nc1c2c(nc3sc4c(c13)CCCC4)CCCCC2", "MEASURED": 10}
{"COMPOUND": "Cc1sc2nc3c(c(N)c2c1C)CCCCC3", "MEASURED": 20}
{"COMPOUND": "Cc1sc2nc3c(c(N)c2c1C)CCC3", "MEASURED": 20}
{"COMPOUND": "Nc1c2c(nc3sc4c(c13)CCC4)CCC2", "MEASURED": 16.5}
{"COMPOUND": "Nc1c2c(nc3sc4c(c13)CCCC4)CCCC2", "MEASURED": 10}
{"COMPOUND": "CC1CCc2c(nc3sc4c(c3c2N)CCCC4)C1 (stereo not shown)", "MEASURED": 10}
{"COMPOUND": "Nc1c2c(nc3sc4c(c13)CCCCC4)CCCC2", "MEASURED": 10}
{"COMPOUND": "Nc1c2c(nc3sc4c(c13)CCC4)CCCC2", "MEASURED": 13.5}
{"COMPOUND": "CC1CCc2c(nc3sc4c(c3c2N)CCC4)C1 (stereo not shown)", "MEASURED": 16.5}
{"COMPOUND": "Nc1c2c(nc3sc4c(c13)CCC4)CCCCCC2", "MEASURED": 9}
{"COMPOUND": "Cc1sc2nc3c(c(N)c2c1C)CCC(C)C3 (stereo not shown)", "MEASURED": 15}
{"COMPOUND": "Nc1c2c(nc3sc4c(c13)CCC4)CCCCC2", "MEASURED": 15}
